Items are presented alongside their recorded Cell Viability.
Tested on: B cell
Method summary: Cytotoxicity screening of chemical probes in isolated B cell assay. Data is normalized to DMSO control, the cell viability average of replicates are reported. Reduction of ATP level more than 20% indicate compromised cell health status.
Reported conditions: human, 1 µM
Non-standard residues stand in square brackets, D forms with d. Residues, ends and D or L forms follow the SMILES beside them.
Give your result as the value with the unit written after it.

# Cell Viability measured on B cell for item Cn1cc(-c2ccc3occ(-c4cccc(-c5ccncc5)c4)c3n2)cn1 = 101.775%

For the compound CCCCC(=O)N(Cc1ccc(-c2ccccc2-c2nnn[nH]2)cc1)[C@H](C(=O)O)C(C)C , the measured Cell Viability on B cell was 103.145%

Field Cell Viability (B cell), entry CCc1nc2c(C)cc(C)nc2[nH]1 : 100.659%

Considering Cc1c(C(=O)NN2CCCCC2)nn(-c2ccc(Cl)cc2Cl)c1-c1ccc(Cl)cc1 , its Cell Viability with B cell was recorded as 99.45%

The reported Cell Viability value, B cell, for Cc1sc2c(c1C)C(c1ccc(Cl)cc1)=N[C@@H](CC(=O)OC(C)(C)C)c1nnc(C)n1-2 reads 83.2653%

Entry CO[C@H]1CC[C@H](CNc2ccc(S(=O)(=O)NC(=O)c3ccc(N4CCN(CC5=C(c6ccc(Cl)cc6)CC(C)(C)CC5)CC4)cc3Oc3cnc4[nH]ccc4c3)cc2[N+](=O)[O-])CC1 , tested on B cell, has a reported Cell Viability of 88.4422%

For the compound O=C(NC[C@@H]1[C@H]2CN(C(=O)OCc3cc(C(F)(F)F)cc(C(F)(F)F)c3)C[C@@H]12)c1ccc2[nH]nnc2c1 , the measured Cell Viability on B cell was 100.102%

Cell Viability of CCC(=O)N1CCOc2c(cc(-c3ccc(OC)c(OC)c3)cc2OCC2CCCN(C)C2)C1 (stereo not drawn) , assay on B cell, is 98.9735%

B cell Cell Viability of Cc1cc2c(-c3ccco3)cnc(N[C@@H]3CCN(C)C[C@H]3C(=O)NC3CCCCC3)c2[nH]c1=O is 93.8199%

Here CCC(=O)N[C@H]1CC[C@@H](C(=O)N(C)c2ccc(-c3nc4ccccc4o3)cc2)C1 was tested on B cell, and its Cell Viability came to 102.234%

Simply: COCCn1c(C)c(C)s/c1=N\C(=O)C1C(C)(C)C1(C)C , B cell, Cell Viability = 97.5131%

Kindly note: B cell, COC(c1ccccc1)(c1ccccc1)[C@H](Oc1nc(C)cc(C)n1)C(=O)O , Cell Viability value reported: 104.904%

Record Cn1nc(C(F)(F)F)cc1-c1cnc(N2CCc3cc(S(=O)(=O)Nc4c(F)cc(Cl)cc4F)cc(N4CCCC4=O)c32)nc1 has B cell Cell Viability equal to 96.7008%

Hey, B cell data for CC(C)C[C@@H]1NC(=O)[C@@H](C(C)C)NC(=O)[C@@H]2CCCN2C(=O)[C@@H](CC(=O)O)NC(=O)[C@@H](Cc2c[nH]c3ccccc23)NC1=O [BQ-123] (cyclo(L[dW][dD]P[dV])) : Cell Viability came out at 98.787%

These entries and their values trace back to ChEMBL document CHEMBL5724562.
